Biological target: CD16a-V158 (FcgRIIIa-V158) (Homo sapiens, UniProt P08637, F176V)
Sequence (P08637 17-208 F176V limits assumed): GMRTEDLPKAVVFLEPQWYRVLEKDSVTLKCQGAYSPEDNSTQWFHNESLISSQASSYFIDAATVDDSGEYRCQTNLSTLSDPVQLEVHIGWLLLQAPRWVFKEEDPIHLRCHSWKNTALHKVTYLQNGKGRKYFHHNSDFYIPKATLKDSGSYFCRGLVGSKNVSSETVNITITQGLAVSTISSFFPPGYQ
Test: SPR, antibody binding to anti-his Fab captured FcgR-his (% Rmax)
Details: 1 μM antibody
quantity.name: % Rmax hCD16a-V158 (%)
Express the result in % but write the number alone.

Data request: Please give the documented % Rmax hCD16a-V158 of mAb12-IgG2.3 (protein, left off: another chain or arm of the molecule) constant: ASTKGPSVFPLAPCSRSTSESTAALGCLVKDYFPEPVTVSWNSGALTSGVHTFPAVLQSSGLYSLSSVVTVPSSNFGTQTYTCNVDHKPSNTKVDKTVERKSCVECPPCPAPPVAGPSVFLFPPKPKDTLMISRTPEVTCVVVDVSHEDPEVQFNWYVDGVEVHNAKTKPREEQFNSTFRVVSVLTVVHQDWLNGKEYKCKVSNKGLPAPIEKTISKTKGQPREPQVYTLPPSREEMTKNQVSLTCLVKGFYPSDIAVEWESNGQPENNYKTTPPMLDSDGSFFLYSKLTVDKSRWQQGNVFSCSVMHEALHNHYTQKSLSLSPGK
Data returned: 1
